- assay_overview: label from the status in PepcDB records
endpoint_label: protein production

>  <construct_sequence>
MKKWFPALLFSLCVSGESSAWNHNIVFYSLGNVNSYQGGNVVITQRPQFITSWRPGIATVTWNQCNGPEFADGSWAYYREYIAWVVFPKKVMTQNGYPLFIEVHNKGSWSEENTGDNDSYFFLKGYKWDERAFDAGNLCQKPGETTRLTEKFDDIIFKVALPADLPLGDYSVTIPYTSGIQRHFASYLGARFKIPYNVAKTLPRENEMLFLFKNIGGCRPSAQSLEIKHGDLSINSANNHYAAQTLSVSCDVPANIRFMLLRNTTPTYSHGKKFSVGLGHGWDSIVSVNGVDTGETTMRWYKAGTQNLTIGSRLYGESSKIQPGVLSGSATLLMILP

>  <reported_result>
failed

$$$$
>  <construct_sequence>
MQVEETSIEEIQTKIKRLNSKAGQMKMDLHDLAEGLPTDYTQLMDVAAATYEIYRQLDELKQELKKLENAK

>  <reported_result>
failed

$$$$
>  <construct_sequence>
MIKSDDAGKLILRLALGILVIMHGLAKLSSGVGGIAGMLSSHGLPGFLAYFAYVGEIVGPLLIILGIYCRLGALLVVLNMVVAILLAHMGQLFSISNTGGWALELQGMFLFGALALAFMGAGRFSLAGSGGRWN

>  <reported_result>
failed

$$$$
